Source: the supplement of paper PMC9170038

System: MS2 coat protein
Experiment: apparent KD of MS2 coat protein; designed switch direction (-1 OFF switch, 1 ON switch): -1; higher = weaker reporter binding
Details: input ligand: microRNA oligo, concentration not stated
measured.parameter: apparent KD of MS2 coat protein

Recorded results for 3 sequences are shown here.
AACCUGAGGCAAAGCUUUAGGUGUACAUGAGGAUCACCCAUGUAGGAUAUGGUAGGCAAAGCUUACCAGAAGGACAUGUUAAUU [Mat - Exclusion NG 3 - Mod of JL - D38] (Eterna round: R96, puzzle: Exclusion NG 3); 61.5 nM
UUUUUAUAUGAAGGAUAUACUUAACAUGAGGAUCACCCAUGUGGUGUUGUGAGUGAGUGAGUUUAGUAGAAGGUCAAUGAUUUC [JMF's solution 64] (Eterna round: R96, puzzle: Exclusion NG 2); 382 nM
UCGUUCCGUGUAGGAUAUUGGCCUUCCUUGGGCCGAGAAGGACAUGAGGAUCACCCAUGUAUGUUAUUAUCGCGCGUGGCGCAU [Design 87] (Eterna round: R96, puzzle: Exclusion NG 1); 13.3 nM

// next entry
CUAAAUCAUGUAGGAUAUGCAUAGCAAAGCUAUGCAGAAGGACAUGAGGAUCACCCAUGUCAUUCCGUCUGGAGACAGACGGGA [Mat - Exclusion NG 1 - Mod of JL - D56] (Eterna round: R96, puzzle: Exclusion NG 1) has a reported apparent KD of MS2 coat protein of 25 nM

----------
Please go through the items and note down their apparent KD of K4 kissing-loop reporter.
System: K4 kissing-loop RNA reporter;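 also: bound reporter read as fluorescence of individual clusters on recovered sequencing chips by microscopy, with normalized cluster intensities fitted with a binding model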
Assay: apparent KD of K4 kissing-loop reporter; higher = weaker reporter binding
Conditions: Eterna round: R107; input ligand: FMN 200 uM

// below: answered sequences
GCGCGGCACAGUGAUGUUGUGCCUCGGAGACGAGGACCGGUACGGCCGCCACUCGUCCGCGCAGCUGAGGCAAAAGCCUCGGCAA [Omei KL Tryp A SS B v4]; 382 nM
UGUCAUUGGUCGGCCGCCACUAGGACCGGGUUUUGCCUAGUGAUGUUAGUAUGAACGGCCGCCACUAGGACCGGGACCGAUGACU [KL-SSTryp-B26 #DoubleAptamer]; 468 nM

The recorded apparent KD of K4 kissing-loop reporter with K4 kissing-loop RNA reporter for GGAAGGAAGGAAACCAACCAACCAACCGAUACCAGCGGAAGAGAACGCCCUUGGCAGCGGAGAAAGCCAGUGAUGUUGGAAAGAA was 324 nM

----------
Test system: MS2 coat protein
Assay: apparent KD of MS2 coat protein; designed switch direction (-1 OFF switch, 1 ON switch): -1; higher = weaker reporter binding
Conditions: input ligand: none
Provide the reported apparent KD of MS2 coat protein of each item.
Answers are plain numbers, in nM.

Before answering, review these 2 worked examples.
AAUACAAGCUAUUGAUCCCACAUGAGGAUCACCCAUGUAUAUGGCGGUGACACCUCCAUGACGAUAGCUCGUCUUAU [Sensor-V1 #58] (Eterna round: R97, puzzle: Sensor, turn-off variant 1); 1360
UUAUUAAUUAAUAUUAUAAGAUCACAUGAGGAUCACCCAUGUCAGGAUAUCAGCUCGUUUAGAGCUGAGAAGGGACAAAUAAUA [ExNG3/15-B2] (Eterna round: R96, puzzle: Exclusion NG 3); 189

Pending sequence:
The value of apparent KD of MS2 coat protein measured for the sequence CAUUGUUAUCGAGGAUAUCGUAUUGAGAUACUACGAGAAGGCGGACUAAACAUGAGGAUCACCCAUGUGAGACGGAUGCUUGGG [Ex NG1 #33] (Eterna round: R96, puzzle: Exclusion NG 1) turned out to be 34.3
